Measured values drawn from patent US11840686B2 for this set.

Below, each entry is listed alongside its reported % inhibition.
# System: human PKK mRNA
# experiment_description: Antisense inhibition of human PKK mRNA in HepaRG cells, 1,000 nM, MOE/deoxy/cEt oligonucleotides (Example 3)
# Format: cell-based
# protocol_conditions: HepaRG cells, electroporation with 1,000 nM antisense oligonucleotide, approx. 24 hours, PKK mRNA by RT-PCR (RTS3454), relative to untreated control cells; Table 25 experiment
Strand notation (5' to 3'): a small letter for the sugar, then the base; units joined by * are phosphorothioate-linked, units joined directly phosphodiester-linked; [ ] holds rarer units or linkages, { } end groups; capitals alone tell only the bases. e = 2'-O-(2-methoxyethyl) (MOE); k = constrained ethyl (cEt); [5mC] = 5-methylcytosine; d = 2'-deoxy (DNA)
assay_endpoint: % inhibition

>>> value_observed("548160 (eT*e[5mC]*kG*d[5mC]*dA*dT*dT*dG*dT*d[5mC]*dA*dG*d[5mC]*k[5mC]*k[5mC]*e[5mC]; antisense) [compound 548160]")
"60%"
>>> value_observed("548165 (e[5mC]*eG*kA*d[5mC]*d[5mC]*dT*d[5mC]*dG*d[5mC]*dA*dT*dT*dG*kT*k[5mC]*eA; antisense) [compound 548165]")
"53%"
>>> value_observed("548159 (e[5mC]*eG*k[5mC]*dA*dT*dT*dG*dT*d[5mC]*dA*dG*d[5mC]*d[5mC]*k[5mC]*k[5mC]*eT; antisense) [compound 548159]")
"59%"
>>> value_observed("548169 (eG*eT*kT*dG*d[5mC]*dG*dA*d[5mC]*d[5mC]*dT*d[5mC]*dG*d[5mC]*kA*kT*eT; antisense) [compound 548169]")
"7%"
>>> value_observed("548184 (eA*e[5mC]*kA*dG*dT*d[5mC]*dA*dT*dG*dG*dA*dG*dA*kT*k[5mC]*eT; antisense) [compound 548184]")
"73%"
>>> value_observed("548167 (eT*eG*k[5mC]*dG*dA*d[5mC]*d[5mC]*dT*d[5mC]*dG*d[5mC]*dA*dT*kT*kG*eT; antisense) [compound 548167]")
"36%"

###

# Tested on: human PKK mRNA
# experiment_description: Dose-dependent antisense inhibition of human PKK in HepaRG cells, 0.12-10.00 uM (Example 4)
# Type: cell-based
# protocol_conditions: Table 32, 0.12 μM, electroporation, ~16 h
Strand notation (5' to 3'): a small letter for the sugar, then the base; units joined by * are phosphorothioate-linked, units joined directly phosphodiester-linked; [ ] holds rarer units or linkages, { } end groups; capitals alone tell only the bases. e = 2'-O-(2-methoxyethyl) (MOE); [5mC] = 5-methylcytosine; d = 2'-deoxy (DNA)
assay_endpoint: percent inhibition of PKK at 0.12 μM

>>> value_observed("530965 (antisense eG*eG*e[5mC]*eA*e[5mC]*dA*dG*dG*dG*d[5mC]*dT*dT*d[5mC]*dA*dG*eT*eG*eA*eG*eA) [compound 530965]")
"8%"
>>> value_observed("530988 (eT*e[5mC]*e[5mC]*eA*eA*dA*dG*dT*d[5mC]*dA*dA*d[5mC]*dT*d[5mC]*d[5mC]*e[5mC]*eG*eG*eG*eT; antisense) [compound 530988]")
"0%"
>>> value_observed("530967 (antisense e[5mC]*eA*eA*e[5mC]*e[5mC]*dA*dA*dT*dT*dT*d[5mC]*dT*dG*dA*dA*eA*eG*eG*eG*e[5mC]) [compound 530967]")
"30%"
>>> value_observed("531022 (eG*eT*eA*eA*eT*dG*dT*d[5mC]*dT*dG*dA*d[5mC]*dA*dG*dA*eT*eT*eT*eA*eA; antisense) [compound 531022]")
"0%"
>>> value_observed("531002 (eG*eA*eG*e[5mC]*eT*d[5mC]*d[5mC]*d[5mC]*dT*dT*dG*dT*dG*dT*d[5mC]*e[5mC]*e[5mC]*eA*eT*eA; antisense) [compound 531002]")
"6%"
